# targetOfAssay: Cytochrome P450 2C9 (Homo sapiens)
# assayText: Cytochrome P450 Family 2 Subfamily C Member 9 (CYP2C9) small molecule antagonists: luciferase reporter qHTS assay (AID 1671198); note: nearly all actives have a fitted effect of over 50% in size
# conditionSet: P450-Glo CYP2C9 enzyme assay, luciferin luminescence; series mostly up to 115 µM
Results filed as inconclusive are left out. Active and inactive are the calls of the source. Calls come from the whole dose curve; as a rule, active = well fitted inhibition curve with a large enough effect in the repeat runs; inconclusive = weak or mixed curves; inactive = no such curve, though single readings can be large or run the other way.
Field 'call' accepts active, inactive

Q: Check the results log: what was the call for `C/C=C/C(=O)C1=C(C)CCCC1(C)C` ?
A: inactive

Q: Dear colleague, could you share the recorded outcome for `C[Si](C)(C)Cl` when you have a moment?
A: inactive

Q: Please let me know the test result on file for `Cc1cccc(C)n1` .
A: inactive

Q: Please indicate how the test categorized CCCCCCC(C)OC(=O)COc1nc(F)c(Cl)c(N)c1Cl (stereo not given) .
A: active

Q: // return assay outcome for c1cc(OCC2CO2)cc(OCC2CO2)c1 (stereo not given)
A: active

Q: Hi team, can someone confirm the assay call for CO[Si](CCC1CCC2OC2C1)(OC)OC (stereo not given) ?
A: inactive
